Parameter: Breaking Anti-AGE. Scope: all listed entries.
# test.target: AGE-BSA previously crosslinked to the collagen (Bos taurus)
# Construct: Bovine Serum Albumin (Type V), (BSA) Calbiochem; purchased Calbiochem (BSA Type V); Collaborative Biomedical Products (Biocoat collagen plates)
# Sequence (P02769 25-607): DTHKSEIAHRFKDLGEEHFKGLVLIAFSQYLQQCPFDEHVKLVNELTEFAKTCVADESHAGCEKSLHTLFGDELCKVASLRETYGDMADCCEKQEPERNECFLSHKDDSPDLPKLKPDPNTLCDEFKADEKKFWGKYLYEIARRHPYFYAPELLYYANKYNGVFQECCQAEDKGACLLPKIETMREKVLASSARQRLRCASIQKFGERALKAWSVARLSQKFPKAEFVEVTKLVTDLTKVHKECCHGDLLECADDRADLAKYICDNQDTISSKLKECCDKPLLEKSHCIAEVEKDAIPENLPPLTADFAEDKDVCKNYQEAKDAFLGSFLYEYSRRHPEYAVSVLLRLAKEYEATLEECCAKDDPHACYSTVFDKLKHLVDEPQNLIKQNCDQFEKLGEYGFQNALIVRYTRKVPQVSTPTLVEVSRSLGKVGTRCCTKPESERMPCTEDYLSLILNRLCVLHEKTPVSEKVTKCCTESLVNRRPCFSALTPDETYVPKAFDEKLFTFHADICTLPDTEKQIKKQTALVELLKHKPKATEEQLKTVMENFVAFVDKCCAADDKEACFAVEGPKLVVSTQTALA
# Sequence (P02454 152-1207 partner limits assumed): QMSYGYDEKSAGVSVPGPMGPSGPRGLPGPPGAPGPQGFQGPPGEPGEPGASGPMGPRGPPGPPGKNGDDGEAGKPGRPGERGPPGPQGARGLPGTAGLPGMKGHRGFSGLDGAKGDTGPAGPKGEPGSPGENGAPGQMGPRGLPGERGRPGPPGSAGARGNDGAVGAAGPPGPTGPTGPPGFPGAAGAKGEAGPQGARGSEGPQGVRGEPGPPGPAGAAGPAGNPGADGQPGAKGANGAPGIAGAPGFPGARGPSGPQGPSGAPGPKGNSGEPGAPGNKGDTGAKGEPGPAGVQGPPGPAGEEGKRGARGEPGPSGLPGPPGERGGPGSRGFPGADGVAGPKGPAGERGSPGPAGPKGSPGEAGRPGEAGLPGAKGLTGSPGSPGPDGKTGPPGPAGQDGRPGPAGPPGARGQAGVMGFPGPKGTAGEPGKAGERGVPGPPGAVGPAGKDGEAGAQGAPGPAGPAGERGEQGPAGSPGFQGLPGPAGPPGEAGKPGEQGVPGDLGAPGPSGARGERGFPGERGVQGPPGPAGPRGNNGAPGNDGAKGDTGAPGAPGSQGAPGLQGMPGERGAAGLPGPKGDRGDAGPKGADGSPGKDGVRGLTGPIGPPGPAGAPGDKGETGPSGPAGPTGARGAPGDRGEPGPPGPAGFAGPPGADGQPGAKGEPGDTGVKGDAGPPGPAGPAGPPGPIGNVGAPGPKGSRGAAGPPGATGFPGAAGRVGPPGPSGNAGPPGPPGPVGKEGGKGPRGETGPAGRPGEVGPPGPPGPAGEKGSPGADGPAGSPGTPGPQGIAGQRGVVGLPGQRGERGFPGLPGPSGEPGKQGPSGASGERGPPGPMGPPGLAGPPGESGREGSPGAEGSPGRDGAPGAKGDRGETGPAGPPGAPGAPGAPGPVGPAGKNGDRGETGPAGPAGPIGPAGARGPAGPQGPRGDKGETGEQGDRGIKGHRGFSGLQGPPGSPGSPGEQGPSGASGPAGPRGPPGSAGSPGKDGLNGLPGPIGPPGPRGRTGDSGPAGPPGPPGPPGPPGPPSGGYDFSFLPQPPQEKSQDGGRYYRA
# Sequence (P02466 86-1125 partner limits assumed): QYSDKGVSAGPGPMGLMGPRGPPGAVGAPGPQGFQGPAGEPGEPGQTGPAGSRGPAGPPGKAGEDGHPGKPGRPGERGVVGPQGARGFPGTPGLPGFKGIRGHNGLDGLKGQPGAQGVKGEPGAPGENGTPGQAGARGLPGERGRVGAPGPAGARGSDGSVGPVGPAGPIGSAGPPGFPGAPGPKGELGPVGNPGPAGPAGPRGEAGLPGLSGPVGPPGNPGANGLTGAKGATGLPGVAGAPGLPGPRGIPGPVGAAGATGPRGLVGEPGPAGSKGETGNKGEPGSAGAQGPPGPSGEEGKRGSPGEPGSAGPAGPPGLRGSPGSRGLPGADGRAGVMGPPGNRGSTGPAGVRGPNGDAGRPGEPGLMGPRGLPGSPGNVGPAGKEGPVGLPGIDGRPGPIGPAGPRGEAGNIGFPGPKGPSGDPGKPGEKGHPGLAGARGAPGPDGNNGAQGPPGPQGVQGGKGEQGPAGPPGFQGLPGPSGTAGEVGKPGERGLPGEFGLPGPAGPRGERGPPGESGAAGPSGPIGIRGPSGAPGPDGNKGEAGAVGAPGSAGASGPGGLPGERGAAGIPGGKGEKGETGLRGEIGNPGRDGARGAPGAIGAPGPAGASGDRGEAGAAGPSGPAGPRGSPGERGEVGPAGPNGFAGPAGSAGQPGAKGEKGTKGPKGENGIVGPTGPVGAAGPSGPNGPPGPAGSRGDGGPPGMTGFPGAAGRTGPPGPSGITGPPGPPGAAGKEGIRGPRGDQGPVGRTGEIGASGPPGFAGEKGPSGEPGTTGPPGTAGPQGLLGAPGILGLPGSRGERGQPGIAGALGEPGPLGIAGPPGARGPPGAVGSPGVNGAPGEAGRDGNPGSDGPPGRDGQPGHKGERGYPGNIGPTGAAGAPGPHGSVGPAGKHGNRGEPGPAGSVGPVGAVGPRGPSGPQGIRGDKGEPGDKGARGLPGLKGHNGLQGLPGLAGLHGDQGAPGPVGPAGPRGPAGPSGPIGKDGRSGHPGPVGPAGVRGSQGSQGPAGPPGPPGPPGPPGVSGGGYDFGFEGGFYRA
# experiment: Cross-Link Breaking Assay (sandwich enzyme immunoassay)
# Format: biochemical
# test.settings: concentration not given, anti-AGE antibody
# Experimental: The present invention also involves a novel sandwich enzyme immunoassay used to ascertain the ability of test compounds to “break” or reverse already formed advanced glycosylation endproducts by detecting the breaking of AGE (Advanced glycosylation endproduct) moieties from AGE-crosslinked protein. This assay comprises: […] 1. […] The pH of the incubation mixture was monitored weekly and adjusted to pH 7.4 if necessary. […] Protein concentration was determined by the micro-Lowry method. […]
Write the number in % without appending the unit.

A selection of reference data follows.
>  <compound.structure>
NC(=O)C[n+]1csc2ccccc21.[Br-]

>  <Breaking Anti-AGE (%)>
77

$$$$
>  <compound.structure>
O=C(C[n+]1ccsc1)c1ccccc1.[Br-]

>  <Breaking Anti-AGE (%)>
73

$$$$
>  <compound.structure>
Cc1c(CCO)sc[n+]1CC(N)=O.[Br-]

>  <Breaking Anti-AGE (%)>
65

$$$$

# context switch: different molecule, same Breaking Anti-AGE
Input: # input molecule: `CC(=O)C[n+]1ccsc1.[Cl-]` ; wanted: its Breaking Anti-AGE
Output: 56
